Test system: RXF 393 renal
assay_explanation: NCI-60 one-dose screen, 48 h (100 = growth as untreated, 0 = no growth, -100 = all killed)
condition_info: 10 µM unless noted
The panel holds about 83,000 compounds, 20% with a hit somewhere; the sample as a whole holds those more often.
Rule: growth under 80% gives not met, otherwise met.

compound	assayed_target	label
Nc1ccc(-c2nc3cc(F)ccc3[se]2)cc1F	RXF 393 renal	met

Challenge: Please indicate if the recorded growth for O=[N+]([O-])/C=C\c1ccc(Cl)c(Cl)c1 meets or exceeds 80%.
Response given: not met

Challenge: Also need CCOC(=O)[C@@H](C)C[C@H](Cc1ccccc1)NC(=O)c1csc([C@@H](C[C@H](C(C)C)N(C)C(=O)CNC(=O)[C@H]2CCCCN2C)OC(C)=O)n1 , thanks.
Response given: not met

###

System: TK-10 renal
assay_explanation: NCI-60 one-dose screen, 48 h
condition_info: 10 µM unless noted
About 83,000 compounds went through this panel and 20% of them were active in at least one assay; those are over-represented in the sample as a whole. Activity calls are given as the source filed them. Rule for the calls: active = growth percent below 10; inactive = the rest.
Permitted responses: 1 for active, -1 for inactive

Below are worked cases with known answers.
In [3]: df
Out[3]:
                                   molecule  assayed_target  label
0  Fc1ccc2c(c1)c(-c1nc(-c3c[nH]c4ncccc34)cs1)cn2CCN1CCOCC1     TK-10 renal     -1
1  CN(C)CC(C(=O)Cc1ccccc1)c1ccccc1 (centres undefined)     TK-10 renal      1
2               CCC1(C(C)C)C(=O)NC(=S)NC1=O     TK-10 renal     -1

Challenge: Lab log entry: Cn1cc(-c2csc(-c3cn(CCCCN4CCCCC4)c4ccccc34)n2)c2cccnc21 — outcome as called in the assay?
Response given: -1

###

Test system: DU-145 prostate
assay_explanation: NCI-60 one-dose screen, 48 h
condition_info: 10 µM unless noted
The panel holds about 83,000 compounds, 20% with a hit somewhere; the sample as a whole holds those more often. The source made the active and inactive calls. How the source made its calls: active means growth percent below 10; inactive means the rest.
Please reply with one of these outcomes: T = active, F = inactive

The examples below pair each entry with its known result.
molecule	label
COc1cc([C@@H]2c3cc4c(cc3[C@H](OC(C)=O)[C@H]3COC(=O)[C@H]23)OCO4)cc(OC)c1OC	T
COC(=O)[C@H](Cc1ccccc1)NNC(=O)c1csc([C@@H](C[C@H](C(C)C)N(C)C(=O)[C@@H](NC(=O)[C@H]2CCCCN2C)C2CC2)OC(C)=O)n1	T
C/C=C(\C)C(=O)O[C@@H]1C(O)[C@H]2OC(COC(=O)CCC(=O)CCCCCC[C@H](CCCCC)O[C@@H]3OC(C)[C@H](OC(C)=O)C(O)[C@H]3O2)[C@H]1OC(=O)/C=C/c1ccccc1 (stereo partly drawn)	F

Challenge: Test call, this molecule: O=C(N/N=C/c1ccc(N(CCCl)CCCl)cc1)c1cccc2ccccc12
Response given: F

Challenge: Note, next up: CCCCCCCCCCCCNC(c1ccccc1)C(O)c1ccccc1 (stereo not drawn)
Response given: F

Challenge: Next entry: COc1cc(/C=C\c2cc(OC)c(OC)c(OC)c2)cc(NS(=O)(=O)c2cccc(Cl)c2)c1OC
Response given: T

Challenge: Now this one: N#CC1(c2ccccc2)CCN(Cc2ccccc2)CC1
Response given: F

Challenge: Okay, and COc1ccc(/C=C\c2cc(OC)c(OC)c(OC)c2)cc1NC(=O)/C=C/c1ccc(OC)c(OC)c1 ?
Response given: F

Challenge: Now consider N#Cc1c(Br)n(C2OC(CO)C(O)C2O)c2ncnc(N)c12 (stereo not drawn) .
Response given: F

Challenge: Ok, now Clc1ccc(CO/N=C(\Cn2ccnc2)c2ccc(Cl)cc2Cl)c(Cl)c1
Response given: F

Challenge: Now the molecule O=[N+]([O-])c1ccc([Se]C2CCCCC2Cl)c([N+](=O)[O-])c1 (stereo not drawn)
Response given: F

###

# key: entry, value: growth
Tested on: UACC-257 melanoma
assay_explanation: NCI-60 one-dose screen, 48 h (100 = growth as untreated, 0 = no growth, -100 = all killed)
condition_info: 10 µM unless noted
The panel holds about 83,000 compounds, 20% with a hit somewhere; the sample as a whole holds those more often.
# value in %; strip the unit string

In [3]: df
Out[3]:
                                   compound     assayed_target  measured_value
0  CC1CCCC(C[N+](C)(C)C)C1=O (stereo not drawn)  UACC-257 melanoma             112

Challenge: Name the recorded growth for O=C1CCC2(O)[C@@H]3Cc4ccc(O)c5c4[C@]2(CCN3Cc2ccoc2)C1O5 (stereo partly drawn) .
Response given: 103

Challenge: Also CC(C)CCC1(CCCl)C(=O)NC(=O)NC1=O , if possible.
Response given: 91.1

###

Tested on: BT-549 breast
assay_explanation: NCI-60 one-dose screen, 48 h (100 = growth as untreated, 0 = no growth, -100 = all killed)
condition_info: 10 µM unless noted
Compounds without any hit were thinned out: in the full panel of roughly 83,000, 20% have a hit.
property_label: growth (%)
Give the value in % but do not write % after it.

These recorded examples may help you get a feel for the data.
compound	growth, %
CN(C)C(=O)Oc1ccc(Br)cc1	103
COC(=O)[C@H](Cc1ccccc1)NC(=O)c1csc([C@@H](C[C@H](C(C)C)N(C)C(=O)[C@@H](NC(=O)[C@H]2CCCN2C)C2CC2)OC(C)=O)n1	20.6
O=C1C=C2C(=CCOC2O)O1 (configuration not stated)	52.8
CC(C)=CC1C(C(=O)OCc2cccc(Oc3ccccc3)c2)C1(C)C (configuration not stated)	100
Nc1cc2nc3ccccc3nc2cc1N	94

Challenge: For COC(=O)[C@@H](C)C[C@H](Cc1cn(C)c2ccccc12)NC(=O)c1csc([C@@H](C[C@H](C(C)C)N(C)C(=O)[C@@H](NC(=O)[C@H]2CCCCN2C)C(C)C)OC(C)=O)n1 , what is its reported growth?
Response given: -15.9

Challenge: Continue with CNCc1cccnc1
Response given: 124

Challenge: Item: COc1cc(C=Nc2cccc(Br)c2)ccc1N(CCCl)CCCl
Response given: 85.5

Challenge: Request: COC(=O)[C@@H](C)C[C@H](Cc1ccccc1)NC(=O)c1csc([C@@H](C[C@H](C(C)C)N(C)C(=O)[C@@H](NC(=O)[C@H]2CCCCN2C)C2CCCCC2)OC(C)=O)n1
Response given: -11.8

Challenge: Next compound up: COC(=O)[C@@H](C)C[C@H](Cc1ccccc1)NC(=O)c1nc([C@@H](C[C@H](C(C)C)N(C)C(=O)[C@@H](NC(=O)[C@H]2CC(=O)CCN2C)C(C)C)OC(C)=O)sc1C(C)C
Response given: -10.6

Challenge: Also, C[C@@]1(CCCCCCCCCc2ccc(O)cc2)C[C@]2(C)OC(=O)C[C@@H]2OO1 please.
Response given: 102

Challenge: Okay, and CC[C@H](NC(=O)[C@H]1CCCCN1C)C(=O)N(C)[C@H](C[C@@H](OC(C)=O)c1nc(C(=O)N[C@@H](Cc2ccccc2)C[C@H](C)C(=O)O)cs1)C(C)C ?
Response given: -15.6

###

System: NCI-H522 lung
assay_explanation: NCI-60 one-dose screen, 48 h (100 = growth as untreated, 0 = no growth, -100 = all killed)
condition_info: 10 µM unless noted
This is part of a sample that, as a whole, favours compounds with a hit. Of some 83,000 tested, about 20% had one in any assay.
# note: exactly 50% is not below, so it is -1; use 1 for growth strictly under it

Reference set, count: 4
>>> print(df.to_string())
                                     smiles  label
0  O=C1NC(=O)C(=Cc2cn(CCCCCCn3c4ccccc4c(=O)c4ccccc43)c3ccccc23)C(=O)N1     -1
1  Cc1cc(NC(=O)NCc2ccc(N3C(N)=NC(N)=NC3(C)C)cc2)ccc1S(=O)(=O)F      1
2  CC(=O)Nc1nc2c(s1)CC[C@@]1(C)C2=CC[C@H]2[C@@H]3CC[C@H](O)[C@@]3(C)CC[C@@H]21     -1
3  CCCCCCCCCCCCCCCCCCOc1ccccc1COP(=O)(O)OOCC[N+](C)(C)C      1

Challenge: Here's an entry: COc1ccc(/C=C\c2cc(OC)c(OC)c(OC)c2)cc1OCC(=O)Nc1nc2ccc(OC(F)(F)F)cc2s1 . Is its growth below 50%?
Response given: 1

Challenge: Try COC(=O)[C@@H](C)C[C@H](Cc1ccccc1)NC(=O)c1nc([C@@H](C[C@H](C(C)C)N(C)C(=O)[C@@H](NC(=O)[C@H]2CCCCN2C)C(C)C)OC(C)=O)sc1C next.
Response given: 1

Challenge: Next compound: CCOP(=O)(Nc1ccc2c(c1)/C(=N/NC(N)=S)c1ccccc1-2)OCC
Response given: -1

Challenge: Then O=C1C(=Cc2cn(Cc3ccccc3)c3ccccc23)C(=O)N(Cc2ccccc2)C(=O)N1Cc1ccccc1 ?
Response given: -1
